Test system: HEK-293T
Assay: Cytotoxicity against HEK293T cells assessed as reduction in cell viability incubated for 48 hrs by CCK8 assay
Details: Homo sapiens
pIC50: −log10 of the molar value.
measured.parameter: pIC50

Give the reported pIC50 for this compound. "O=C(NCCNS(=O)(=O)c1ccc(-c2ccccc2Oc2ccc([N+](=O)[O-])c([N+](=O)[O-])c2)s1)Nc1cc(C(F)(F)F)cc(C(F)(F)F)c1"
< 4.30

Give the reported pIC50 for this compound. "O=C(NCCNS(=O)(=O)c1ccc(-c2ccccc2OCc2cccc(O)c2)s1)Nc1cc(Cl)cc(Cl)c1"
< 4.70

Give the reported pIC50 for this compound. "O=C(Nc1cccc([N+](=O)[O-])c1)N1CCN(S(=O)(=O)c2sccc2-c2ccccc2Oc2ccc(O)c(O)c2)CC1"
< 4.70

* * *

Tested on: HEK-293T
Test: Cytotoxicity against HEK293T cells assessed as reduction in cell viability incubated for 48 hrs by CCK8 assay
Details: Homo sapiens
pIC50: −log10 of the molar value.
measured.parameter: pIC50

Sample answers from the record:
O=C(NCCNS(=O)(=O)c1ccc(-c2ccccc2OCc2ccccc2)s1)Nc1cc(C(F)(F)F)cc(C(F)(F)F)c1 :: < 4.70
O=[N+]([O-])c1ccc(Oc2ccc(O)c(O)c2)c(-c2ccsc2S(=O)(=O)N2CCN(C(=S)Nc3cc(C(F)(F)F)cc(C(F)(F)F)c3)CC2)c1 :: < 4.70

Give the reported pIC50 for this molecule. "Cc1ccc(-c2ccsc2S(=O)(=O)NCCNC(=O)Nc2cc(C(F)(F)F)cc(C(F)(F)F)c2)c(Oc2ccc(O)c(O)c2)c1"
< 4.70

* * *

Quick list: IC50 per entry.
System: HEK-293T
Assay: Cytotoxicity against HEK293T cells assessed as reduction in cell viability incubated for 48 hrs by CCK8 assay
Conditions: Homo sapiens

Give the reported IC50 for this compound. "O=C(NCCNS(=O)(=O)c1ccc(-c2ccccc2O[C@H]2CC[C@H](O)CC2)s1)Nc1cc(Cl)cc(Cl)c1"
> 50 µM

* * *

Tested on: HEK-293T
Assay: Cytotoxicity against HEK293T cells assessed as reduction in cell viability incubated for 48 hrs by CCK8 assay
Conditions: Homo sapiens
Quick list: IC50 per entry.

Sample answers from the record:
COc1ccc(Oc2ccccc2-c2ccsc2S(=O)(=O)NCCNC(=S)Nc2cc(C(F)(F)F)cc(C(F)(F)F)c2)cc1OC :: 6.8 µM
O=S(=O)(NCCNC(=S)Nc1cc(C(F)(F)F)cc(C(F)(F)F)c1)c1ccc(-c2ccccc2O[C@H]2CC[C@@H](O)CC2)s1 :: > 20 µM
O=C(NCCNS(=O)(=O)c1ccc(-c2ccccc2Oc2ccc([N+](=O)[O-])c([N+](=O)[O-])c2)s1)Nc1ccc(Cl)cc1 :: > 20 µM

Give the reported IC50 for this compound. "COc1ccc(Oc2ccccc2-c2ccsc2S(=O)(=O)N2CCN(C(=O)Nc3cccc([N+](=O)[O-])c3)CC2)cc1OC"
> 20 µM

Give the reported IC50 for this compound. "COc1cccc(NC(=O)NCCNS(=O)(=O)c2ccc(-c3ccccc3OCc3ccccc3)s2)c1"
> 20 µM

Give the reported IC50 for this compound. "COc1ccc(Oc2ccc(C(C)C)cc2-c2ccsc2S(=O)(=O)NCCNC(=O)Nc2cc(C(F)(F)F)cc(C(F)(F)F)c2)cc1OC"
12.1 µM

Give the reported IC50 for this compound. "COc1ccc(Oc2ccccc2-c2ccsc2S(=O)(=O)N2CCN(C(=O)Nc3cc(C(F)(F)F)cc(C(F)(F)F)c3)CC2)cc1OC"
> 20 µM

Give the reported IC50 for this compound. "Cc1ccc(-c2ccsc2S(=O)(=O)NCCNC(=S)Nc2ccc([N+](=O)[O-])cc2)c(Oc2ccc(O)c(O)c2)c1"
8.2 µM

Give the reported IC50 for this compound. "COc1ccc(NC(=O)NCCNS(=O)(=O)c2ccc(-c3ccccc3OCc3cccc(O)c3)s2)cc1"
> 20 µM

Give the reported IC50 for this compound. "O=C(Nc1ccc([N+](=O)[O-])cc1)N1CCN(S(=O)(=O)c2sccc2-c2ccccc2Oc2ccc(O)c(O)c2)CC1"
> 20 µM

Give the reported IC50 for this compound. "O=S(=O)(c1sccc1-c1ccccc1Oc1ccc(O)c(O)c1)N1CCN(C(=S)Nc2cc(C(F)(F)F)cc(C(F)(F)F)c2)CC1"
> 20 µM

Give the reported IC50 for this compound. "COc1ccc(Oc2ccc(C(C)C)cc2-c2ccsc2S(=O)(=O)NCCNC(=S)Nc2ccc([N+](=O)[O-])cc2)cc1OC"
11.4 µM

Give the reported IC50 for this compound. "O=[N+]([O-])c1ccc(Oc2ccccc2-c2ccc(S(=O)(=O)NCCNC(=S)Nc3cccc(Cl)c3)s2)cc1"
4.99 µM

Give the reported IC50 for this compound. "COc1ccc(NC(=O)NCCNS(=O)(=O)c2ccc(-c3ccccc3Oc3ccc([N+](=O)[O-])cc3)s2)cc1"
> 20 µM

Give the reported IC50 for this compound. "Cc1cc(C)cc(NC(=O)NCCNS(=O)(=O)c2ccc(-c3ccccc3OCc3ccccc3)s2)c1"
> 20 µM

Give the reported IC50 for this compound. "O=S(=O)(NCCNC(=S)Nc1cccc(Cl)c1)c1ccc(-c2ccccc2OCc2cccc(O)c2)s1"
17.4 µM

Give the reported IC50 for this compound. "Cc1cc(C)cc(NC(=O)NCCNS(=O)(=O)c2ccc(-c3ccccc3Oc3ccc(N)cc3)s2)c1"
> 20 µM

Give the reported IC50 for this compound. "O=S(=O)(NCCNC(=S)Nc1cc(C(F)(F)F)cc(C(F)(F)F)c1)c1cc(-c2ccccc2Oc2ccc(O)c(O)c2)cs1"
> 20 µM

* * *

Test system: HEK-293T
Assay: Cytotoxicity against HEK293T cells assessed as reduction in cell viability incubated for 48 hrs by CCK8 assay
Conditions: Homo sapiens
measured.parameter: pIC50
Scale: negative log10 of molar concentration, which is what pIC50 denotes.

Give the reported pIC50 for this compound. "O=S(=O)(NCCNC(=S)Nc1ccc(Cl)cc1)c1ccc(-c2ccccc2OCc2ccccc2)s1"
4.92

Give the reported pIC50 for this compound. "COc1ccc(Oc2cc(C)ccc2-c2ccsc2S(=O)(=O)NCCNC(=O)Nc2cc(C(F)(F)F)cc(C(F)(F)F)c2)cc1OC"
5.05
